Hello, the source for this data is patent US7432264B2, in case you need it.

Measured MIC accompanies every entry in the list below.
Tested on: S. aureus ATCC 13709
ASSAY_PROTOCOL: Minimum inhibitory concentration (MIC), S. aureus
Format: cell-based, Staphylococcus aureus
CONDITION_DESCRIPTION: Staphylococcus aureus, ATCC13709, 24 h, read-out: MIC (S. aureus)
EXPERIMENTAL_ENDPOINT: MIC

MOLECULE: CN(C)CCCOc1ccc(C(NC(=O)c2ccc(-c3cccc(NC(=O)c4ccc(-c5cccc(F)c5)cc4)c3)o2)C(=O)N2CCNCC2)cc1 (stereo not drawn)
EXPERIMENTAL_ENDPOINT: MIC
DATA_VALUE: 3 to 6 mM
//
MOLECULE: Cc1cc(C(=O)Nc2cccc(-c3ccc(C(=O)NC(C(=O)N4CCNCC4)c4ccc(OCCCN(C)C)cc4)o3)c2)ccc1-c1ccccc1 (stereo not drawn)
EXPERIMENTAL_ENDPOINT: MIC
DATA_VALUE: 12 to 25 mM
//
MOLECULE: CN(C)CCCOc1ccc(C(NC(=O)c2ccc(-c3cccc(N(C)Cc4ccc(-c5ccccc5)cc4)c3)o2)C(=O)N2CCNCC2)cc1 (stereo not drawn)
EXPERIMENTAL_ENDPOINT: MIC
DATA_VALUE: 3 to 6 mM

###

Test system: S. aureus ATCC 13709
ASSAY_PROTOCOL: Minimum inhibitory concentration (MIC), S. aureus
Assay type: cell-based, Staphylococcus aureus
CONDITION_DESCRIPTION: Staphylococcus aureus, ATCC13709, 24 h, read-out: MIC (S. aureus)

MOLECULE: CN(C)CCCOc1ccc(C(NC(=O)c2ccc(-c3cccc(NC(=O)c4ccc(-c5ccccc5)cc4)c3)o2)C(=O)N2CCN(C)CC2)cc1 (stereo not drawn)
MIC: 25 to 50 mM

MOLECULE: CN(C)CCCOc1ccc(C(NC(=O)c2ccc(-c3cccc(NC(=O)c4ccc(-c5ccccc5)cc4)c3)o2)C(=O)N2CCNCC2)cc1 (stereo not drawn)
MIC: 6 to 13 mM

MOLECULE: CN(C)CCCOc1ccc(C(C(=O)N2CCNCC2)N(C)Cc2ccc(-c3cccc(NC(=O)c4ccc(-c5ccccc5)cc4)c3)o2)cc1 (stereo not drawn)
MIC: 3 to 6 mM

MOLECULE: COC(=O)N1CCN(C(=O)C(NC(=O)c2ccc(-c3cccc(NC(=O)c4ccc(-c5ccccc5)cc4)c3)o2)c2ccc(OCCCN(C)C)cc2)CC1 (stereo not drawn)
MIC: > 100 mM

MOLECULE: CN(C)CCCOc1ccc(C(NC(=O)c2ccc(-c3cccc(NCc4ccc(-c5ccccc5)cc4)c3)o2)C(=O)N2CCNCC2)cc1 (stereo not drawn)
MIC: 3 to 6 mM

MOLECULE: CN(C)CCCOc1ccc(C(NC(=O)c2ccc(-c3cccc(NC(=O)c4ccc(-c5ccccc5)cc4)c3)s2)C(=O)N2CCNCC2)cc1 (stereo not drawn)
MIC: 25 to 50 mM

MOLECULE: CN(C)CCCCC(NC(=O)c1ccc(-c2cccc(NC(=O)c3ccc(-c4ccccc4)cc3)c2)o1)C(=O)N1CCNCC1 (stereo not drawn)
MIC: 25 to 50 mM

MOLECULE: CN(C)CCCOc1ccc(C(NC(=O)c2ccc(-c3cccc(NC(=O)c4ccc(-c5cc(Cl)cc(Cl)c5)cc4)c3)o2)C(=O)N2CCNCC2)cc1 (stereo not drawn)
MIC: > 100 mM

MOLECULE: Cc1ccc(C)c(-c2ccc(C(=O)Nc3cccc(-c4ccc(C(=O)NC(C(=O)N5CCNCC5)c5ccc(OCCCN(C)C)cc5)o4)c3)cc2)c1 (stereo not drawn)
MIC: 13 to 25 mM

MOLECULE: CC(=O)c1ccccc1-c1ccc(C(=O)Nc2cccc(-c3ccc(C(=O)NC(C(=O)N4CCNCC4)c4ccc(OCCCN(C)C)cc4)o3)c2)cc1 (stereo not drawn)
MIC: 6 to 13 mM

MOLECULE: CCc1ccccc1-c1ccc(C(=O)Nc2cccc(-c3ccc(C(=O)NC(C(=O)N4CCNCC4)c4ccc(OCCCN(C)C)cc4)o3)c2)cc1 (stereo not drawn)
MIC: 3 to 6 mM

MOLECULE: Cc1ccccc1-c1ccc(C(=O)Nc2cccc(-c3ccc(C(=O)NC(C(=O)N4CCNCC4)c4ccc(OCCCN(C)C)cc4)o3)c2)cc1 (stereo not drawn)
MIC: 3 to 6 mM
